Multiple publications report pKi for UniProt P25099; what follows is a combined list.
MEASURED_ON: UniProt P25099
Sequence (P25099 whole entry): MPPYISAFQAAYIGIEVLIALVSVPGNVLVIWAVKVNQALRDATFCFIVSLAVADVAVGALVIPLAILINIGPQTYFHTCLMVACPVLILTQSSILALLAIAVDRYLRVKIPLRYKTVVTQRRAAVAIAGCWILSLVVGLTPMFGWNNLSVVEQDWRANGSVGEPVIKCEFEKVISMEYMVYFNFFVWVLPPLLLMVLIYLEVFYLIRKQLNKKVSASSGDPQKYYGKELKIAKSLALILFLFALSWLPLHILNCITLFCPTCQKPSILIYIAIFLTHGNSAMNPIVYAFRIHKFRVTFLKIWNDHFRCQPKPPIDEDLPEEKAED
Quick note: pKi means taking -log10 of the concentration in moles per liter.

1. OC[C@H]1O[C@@H](n2cnc3c(NN4CCCCC4)nc(Br)nc32)[C@H](O)[C@@H]1O: 8.03
2. OC[C@H]1O[C@@H](n2cnc3c(NC4CCc5cc(Cl)ccc54)ncnc32)[C@H](O)[C@@H]1O (some centres not stated): 7.39
3. CCCn1c(=O)[nH]c2[nH]c(-c3ccc(S(=O)(=O)Nc4ccccc4)cc3)nc2c1=O: 8.74
4. CCCCNc1nc2c(N)ncnc2n1[C@@H]1O[C@H](CO)[C@@H](O)[C@H]1O: 4.94

Q) Endpoint output: pKi of CCCn1c(=O)c2c(nc(Cc3ccco3)n2C)n(Cc2ccco2)c1=O . Value?
A) 6.88

Q) Endpoint output: pKi of Nc1nc(C#CCC2CCCCC2)cn2nc(-c3ccco3)nc12 . Value?
A) 6.17

Q) Endpoint output: pKi of c1ccc2c3nc(C4CCCC4)nc-3c(NC3CCCC3)[nH]c2c1 . Value?
A) 7.41
